test system: 463943-066-T-J2-PDC complex spheroid growth; assay: Anticancer human tumor 463943-066-T-J2-PDC patient-derived colon adenocarcinoma cell line growth inhibition [Asc]; conditions: second compound 0.3 µM; first compound 0.01 µM; stronger effect = lower value;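 further: compound exposure lasted 7 days; 100% = DMSO vehicle control wells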
Catalogue of viability, T/C readings, one per entry.

1. COc1c(OCCCN2CCOCC2)ccc2c3n(c(=NC(=O)c4cnc(N)nc4)nc12)CCN3 + CCN1C(C(=O)NC23CCC(C(=O)O)(CC2)CC3)C(c2cccc(Cl)c2F)C2(C(=O)Nc3cc(Cl)ccc32)C12CCCCC2 :: 72.5%
2. Cn1ncnc1[C@H]1c2n[nH]c(=O)c3cc(F)cc(c23)N[C@@H]1c1ccc(F)cc1 + CCN1C(C(=O)NC23CCC(C(=O)O)(CC2)CC3)C(c2cccc(Cl)c2F)C2(C(=O)Nc3cc(Cl)ccc32)C12CCCCC2 :: 85.6%

Ask: Determine its reported viability, T/C: NC1CCC(NC2CC2c2ccccc2)CC1 (stereo not drawn) + CCN1C(C(=O)NC23CCC(C(=O)O)(CC2)CC3)C(c2cccc(Cl)c2F)C2(C(=O)Nc3cc(Cl)ccc32)C12CCCCC2
Reply: 79%
